Values were extracted from patent US20170355771A1.

- tgt: T1, GPIIb/IIIa (SEQ ID NOs: 23 and 24) (human, UniProt P08514 32-994; P05106 27-716)
- T1 construct: also called GPIIb/IIIa complex
- protocol-text: Bio-Layer Interferometry (OctetRed), monovalent format, yeast-purified Fab; apparent monovalent affinity
readout: Kd (nM)
The figure you give is taken to be in nM; do not add the unit.

1) humanized 34D10 Fab L0/H2 (Fab, V domains shown, Fab; also called VL0/VH2) VH: EVQLVESGGGLVKPGGSLRLSCAASGFTFSAYAMSWVRQAPGKGLVWVASISSGGTTYYPDSVKRQFTISRDNAKNTLYLQMNSLRAEDTAVYYCTRGGDYGYALDYWGQGTLVTVSS VL: EIVMTQSPATLSVSPGERATLSCRASSSVNYMYWYQQKPGQAPRLLIYYTSNLAPGIPARFSGSGSGTEFTLTISSLQSEDFAVYYCQQFSSSPWTFGQGTKVEIK ... 155
2) affinity matured h34D10 Fab VH100/VL0 (Fab, V domains shown, Yeast-expressed, protein A purified, then made into Fab) VH: EVQLVESGGGLVKPGGSLRLSCAASGFTFGAYAMSWVRQAPGKGLVWVASISSGGTTYYPDSVKRQFTISRDNAKNTLYLQMNSLRAEDTAVYYCTRGGDYSYALDYWGQGTLVTVSS VL: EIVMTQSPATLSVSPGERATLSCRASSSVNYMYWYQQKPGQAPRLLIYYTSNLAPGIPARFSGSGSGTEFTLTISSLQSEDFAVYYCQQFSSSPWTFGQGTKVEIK ... 29

Now look at this one.
Can you share its Kd? I mean this binder: affinity matured h34D10 Fab VH102/VL0 (Fab, V domains shown, Yeast-purified Fab) VH: EVQLVESGGGLVKPGGSLRLSCAASGFTFSAYAMSWVRQAPGKGLVWVASISSGGTTYYPDSVKRQFTISRDNAKNTLYLQMNSLRAEDTAVYYCTRGGDYSYALDYWGQGTLVTVSF VL: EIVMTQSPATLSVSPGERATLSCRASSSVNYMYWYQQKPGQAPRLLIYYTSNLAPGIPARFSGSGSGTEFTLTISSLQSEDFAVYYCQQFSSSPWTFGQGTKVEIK
36
